# System: murine melanoma B16-F10 cells
# method.notes: cells
# condition.info: Mus musculus, B16-F10, 72 h, read-out: Cytotoxicity IC50
Where a name gives a salt, the structure may show the parent alone.
IC50 by entry:
Please reply with the bare figure in µg/mL and do not write the unit itself.

Here is how some compounds turned out for IC50.
compound	IC50 [µg/mL]
CO[C@H]1[C@@H](O)[C@@H](C)O[C@H](O[C@H]2[C@H](Oc3cccc4c(O)c5c(=O)oc6ccc(C)c7c(=O)oc(c34)c5c67)O[C@H](C)[C@H](O)[C@]2(C)O)[C@@H]1NC=N [Compound 5, hydrochloride]	0.47
CO[C@H]1[C@@H](O)[C@@H](C)O[C@H](O[C@H]2[C@H](Oc3cccc4c(O)c5c(=O)oc6ccc(C)c7c(=O)oc(c34)c5c67)O[C@H](C)[C@H](O)[C@]2(C)O)[C@@H]1NC(C)=O [Compound 3a, 2"-N-Acetylelsamicin A]	55
CN[C@H]1[C@@H](O[C@H]2[C@H](Oc3cccc4c(O)c5c(=O)oc6ccc(C)c7c(=O)oc(c34)c5c67)O[C@H](C)[C@H](O)[C@]2(C)O)O[C@H](C)[C@H](O)[C@@H]1OC [Compound 4d, 2"-N-Methylelsamicin A]	1.7

// next item, IC50 requested
Form: Entry = CO[C@H]1[C@@H](O)[C@@H](C)O[C@H](O[C@H]2[C@H](Oc3cccc4c(O)c5c(=O)oc6ccc(C)c7c(=O)oc(c34)c5c67)O[C@H](C)[C@H](O)[C@]2(C)O)[C@@H]1NC(C)C [Compound 4a, 2"-N-Isopropylelsamicin A] | System = murine melanoma B16-F10 cells | IC50 = ____
1.5
